test system: SaR4: Meticillin-Resistant Staphylococcus aureus; test: Antibiogram, MIC by the VITEK 2 system; format: cell-based; settings: Staphylococcus aureus; SaR4; Table F2; MIC; read-out: MIC
Quantity: MIC

>>> measured_result("O=C1CN(/N=C/c2ccc([N+](=O)[O-])o2)C(=O)N1")
"≤ 25 µg/mL"
>>> measured_result("C[C@@H]1O[C@@H]1P(=O)(O)O")
"≥ 64 µg/mL"
>>> measured_result("Cc1onc(-c2ccccc2)c1C(=O)N[C@@H]1C(=O)N2[C@@H]1SC(C)(C)[C@@H]2C(=O)O")
"≥ 8 µg/mL"
>>> measured_result("CC[C@H]1OC(=O)[C@H](C)[C@@H](O[C@H]2C[C@@](C)(OC)[C@@H](O)[C@H](C)O2)[C@H](C)[C@@H](O[C@@H]2O[C@H](C)C[C@H](N(C)C)[C@H]2O)[C@](C)(O)C[C@@H](C)C(=O)[C@H](C)[C@@H](O)[C@]1(C)O")
"≥ 8 µg/mL"
>>> measured_result("CN(C)[C@@H]1C(O)=C(C(N)=O)C(=O)[C@@]2(O)C(O)=C3C(=O)c4c(O)cccc4[C@@](C)(O)[C@H]3C[C@@H]12")
"≤ 1 µg/mL"
>>> measured_result("CC1COc2c(N3CCN(C)CC3)c(F)cc3c(=O)c(C(=O)O)cn1c23 (stereo not shown)")
"≥ 8 µg/mL"
>>> measured_result("CN(C)c1ccc(O)c2c1C[C@H]1C[C@H]3[C@H](N(C)C)C(O)=C(C(N)=O)C(=O)[C@@]3(O)C(O)=C1C2=O")
"≤ 0.5 µg/mL"
>>> measured_result("CO[C@H]1/C=C/O[C@@]2(C)Oc3c(C)c(O)c4c(O)c(c(/C=N/N5CCN(C)CC5)c(O)c4c3C2=O)NC(=O)/C(C)=C\\C=C\\[C@H](C)[C@H](O)[C@@H](C)[C@@H](O)[C@@H](C)[C@H](OC(C)=O)[C@@H]1C")
"≤ 1 µg/mL"
>>> measured_result("CCC[C@@H]1C[C@@H](C(=O)N[C@@H]([C@H]2O[C@H](SC)[C@H](O)[C@@H](O)[C@H]2O)[C@@H](C)O)N(C)C1")
"≥ 16 µg/mL"
>>> measured_result("CC(=O)O[C@H]1C[C@@]2(C)[C@@H](C[C@@H](O)[C@H]3[C@@]4(C)CC[C@@H](O)[C@@H](C)[C@@H]4CC[C@@]32C)/C1=C(\\CCC=C(C)C)C(=O)O")
"≤ 1 µg/mL"
